- EXPERIMENTAL TARGET: T1, XIAP-BIR3 (human, UniProt P98170 241-356)
- T1 construct: range 241-356; Expressed in E. coli from pET15b and purified on Ni-agarose
- T1 sequence (P98170 241-356 limits assumed): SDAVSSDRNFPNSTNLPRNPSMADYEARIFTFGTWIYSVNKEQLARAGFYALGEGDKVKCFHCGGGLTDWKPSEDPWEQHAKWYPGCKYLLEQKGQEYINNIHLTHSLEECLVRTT
- ASSAY SUMMARY: fluorescence polarization competition, SMAC-FAM or Hid-FAM probe
Non-standard residues stand in square brackets, D forms with d. No end group written: not given here. Phe(4-SO3H) = N[C@@H](Cc1ccc(S(=O)(=O)O)cc1)C(=O)O
RECORDED ENDPOINT: Ki (µM)
A number alone suffices; assume µM.

Enquiry: Would you kindly share the measured Ki for AVP[Phe(4-SO3H)]AQKSE [AVPX2AQKSE] ?
Return: 8.5
